Assay: NCI Yeast Anticancer Drug Screen. Data for the bub3 strain (AID 167)
Conditions: S. cerevisiae bub3 mutant strain, at 50.0 µM, stronger effect = higher value
Compounds without any hit were thinned out: in the full panel of roughly 79,000, 15% have a hit.
measurement name: growth inhibition (%)
Lab book: enter the figure in %, no units written.

Answered cases to consult:
{"columns": ["compound", "quantitative result"],
 "data": [
  ["CC1CCc2nc(N)nc(CC3CC(=O)NC(=O)C3)c2C1 (centres undefined)", -12.8],
  ["CCCCCCCC/C=C\\CCCCCCCC(=O)OCCN(CCOC(=O)CCCCCCC/C=C\\CCCCCCCC)C(=O)c1ccccc1", -9.9],
  ["CCCCCC/C(CC(=O)CCC(=O)NCCc1ccccc1)=N\\NC(=O)c1ccc2ccccc2c1O", 2.5]
]}

// recorded growth inhibition for COc1cc(/C=C2\Cc3ccccc3C2=O)cc(OC)c1OC : -14.1

---

Assay: NCI Yeast Anticancer Drug Screen. Data for the sgs1 mgt1 strain (AID 161);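 note: 0% = growth of cultures given vehicle only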
Conditions: S. cerevisiae sgs1 mgt1 strain, at 50.0 µM, stronger effect = higher value
Experimental: Growth inhibition of yeast strains with defined genetic alterations is measured as a screen for potential anti-cancer activity. Selected strains with alterations in DNA damage repair or cell cycle control were exposed to compounds and growth inhibition was measured relative to vehicle treated controls. The strain used in this assay is sgs1 mgt1
Compounds without any hit were thinned out: in the full panel of roughly 79,000, 15% have a hit.
measurement name: growth inhibition (%)
Lab book: enter the figure in %, no units written.

Answered cases to consult:
{"columns": ["compound", "growth inhibition [%]"],
 "data": [
  ["CC(=O)OC1CCC2C(C)(CCC3C2(C)CCC2(C)C4CC(C)(C)CCC4(C)CCC32C)C1C (centres undefined)", -11.8],
  ["O=C(O)c1cc(-c2ccccc2)nc2c(Cl)cc(Cl)cc12", -1.85],
  ["Cc1cc(C(C)(C)C)cc(Cc2cc(C(C)(C)C)cc(Cc3cc(C(C)(C)C)cc(C)c3O)c2O)c1O", -43.3],
  ["NC(CC(F)(F)F)C(=O)O (centres undefined)", 16.7],
  ["CCOC(=O)c1c(-c2ccc(OC)cc2)c(C#N)c(=S)n(C2OC(CO)C(O)C(O)C2O)c1-c1ccccc1 (centres undefined)", -20],
  ["Brc1ccccn1", 6.2]
]}

// recorded growth inhibition for CCOC(=O)c1ccc(NC(=O)SCCC(=O)O)cc1 : -7.1

// recorded growth inhibition for CC(SSc1ccc(C(C)(C)C)cc1)c1ccccc1 (centres undefined) : -11.1

// recorded growth inhibition for CC(C)=CCS(=O)c1ccccc1NC1=CC(=O)CC(C)(C)C1 (centres undefined) : -37.6

// recorded growth inhibition for CC/C=N/Nc1ccc([N+](=O)[O-])cc1[N+](=O)[O-] : 4.6

// recorded growth inhibition for N#CCCCOc1ccccc1 : 16.4

// recorded growth inhibition for O=C1OCC/C1=C\c1ccc(Br)cc1 : 3.3

// recorded growth inhibition for CC(=O)/C(=C/c1ccco1)CC(=O)O : -12.9

---

Experiment: NCI Yeast Anticancer Drug Screen. Data for the bub3 strain (AID 167)
Conditions: S. cerevisiae bub3 mutant strain, at 50.0 µM, stronger effect = higher value
The panel holds about 79,000 compounds, 15% with a hit somewhere; the sample as a whole holds those more often.
This section presents molecules with their documented growth inhibition values.
Lab book: enter the figure in %, no units written.

{"columns": ["molecule", "growth inhibition / %"],
 "data": [
  ["COC(=O)CCCC(Sc1ccccc1)C(=O)OC (stereo not drawn)", 7.85],
  ["OC12c3ccccc3C1CCCCCC21OCCCO1 (stereo not drawn)", -8.4],
  ["C/C(=N\\NC(=O)c1cc(C)nc2ccc(Br)cc12)c1ccccc1O", 7.3]
]}

// recorded growth inhibition for CCOC(CN(N=O)c1ccccc1C(C)C)OCC : 3.55

// recorded growth inhibition for CC(=O)C(C(C)=O)C(C(C)=O)C(C)=O.[Cu] : -18.4

// recorded growth inhibition for CCC1=CC(C(O)CC(C)C)C(C)(Cc2ccc(CC)cn2)NC1c1ccccc1 (stereo not drawn) : 54.1

// recorded growth inhibition for CCOC(=O)c1ccccc1[N+](=O)[O-] : 6.7

// recorded growth inhibition for O=C(Nc1ccc(Cl)cc1)c1cc2c(cc1Cl)Sc1nccn1S2(=O)=O : 2.35

---

Assay: NCI Yeast Anticancer Drug Screen. Data for the mec2-1 strain (AID 157)
Settings: S. cerevisiae mec2-1 strain, at 50.0 µM, stronger effect = higher value
About 79,000 compounds went through this panel and 15% of them were active in at least one assay; those are over-represented in the sample as a whole.
measurement name: growth inhibition (%)
Lab book: enter the figure in %, no units written.

{"columns": ["compound", "growth inhibition (%)"],
 "data": [
  ["O=P(c1ccccc1)(c1ccccc1)C(O)c1cccs1 (stereo not given)", 2],
  ["Cc1cccc(NC(=S)NCCc2ccccn2)c1", -7.35],
  ["CCOC(=O)c1c(-c2ccccc2)c(C)cn1C", -26]
]}

// recorded growth inhibition for CCOC(=O)c1nnsc1NC(=O)Nc1ccc(Cl)cc1 : -21.2

// recorded growth inhibition for Cc1nnc2sc(Cl)nn12 : 48.8

---

Assay: NCI Yeast Anticancer Drug Screen. Data for the sgs1 mgt1 strain (AID 161);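 note: 0% = growth of cultures given vehicle only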
Settings: S. cerevisiae sgs1 mgt1 strain, at 50.0 µM, stronger effect = higher value
The panel holds about 79,000 compounds, 15% with a hit somewhere; the sample as a whole holds those more often. Activity calls are given as the source filed them. Cut-off read from the data, not from the text of the source: active = growth inhibition above about 70%; inactive = the rest. Where a SMILES comes first, the peptide text is derived from it. The star is where a group is joined. Boc = CC(C)(C)OC(=O)*
This section presents compounds with their documented growth inhibition values.

Answered cases to consult:
{"columns": ["compound", "growth inhibition"],
 "data": [
  ["COc1ccccc1-n1on1-c1ccccc1OC", "-3.4% (inactive)"],
  ["CC(C)CCc1ccccc1O", "-28.6% (inactive)"],
  ["O=Cc1ccc(O)c(C(=O)O)c1", "15.3% (inactive)"],
  ["N#CSc1nc[nH]c1C(N)=O", "3.45% (inactive)"],
  ["CC(NC(=O)C(NC(=O)OC(C)(C)C)C(C)C)C(=O)N1CCCC1C(=O)O (stereo not drawn) (Boc-Val-Ala-Pro-OH; configuration not given here)", "-41% (inactive)"]
]}

Consider the additional compound presented here.
// recorded growth inhibition for CC1c2ncnc(N)c2CN1C(=O)c1ccccc1 (stereo not given) : -3.15% (inactive)

---

Experiment: NCI Yeast Anticancer Drug Screen. Data for the cln2 rad14 strain (AID 165);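 note: 0% = growth equal to vehicle treated cultures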
Details: S. cerevisiae cln2 rad14 strain, at 50.0 µM, stronger effect = higher value
Compounds without any hit were thinned out: in the full panel of roughly 79,000, 15% have a hit.
This section presents compounds with their documented growth inhibition values.
Lab book: enter the figure in %, no units written.

Answered cases to consult:
{"columns": ["compound", "measurement name", "result units", "quantitative result"],
 "data": [
  ["O=c1ccc2ccc(O)c(O)c2o1", "growth inhibition", "%", 18.1],
  ["N#C/C(=C\\c1ccc(Cl)cc1)C(=O)c1ccccc1", "growth inhibition", "%", 20.9],
  ["O=C(O)C(=O)Cc1ccc(Br)cc1[N+](=O)[O-]", "growth inhibition", "%", -3]
]}

// recorded growth inhibition for COc1cc([N+](=O)[O-])ccc1NC(=O)C(Br)C(Br)c1ccccc1 (stereo not given) : -1.4

// recorded growth inhibition for NCCS/C=C/C(=O)Oc1ccc(Br)cc1 : -1.3

// recorded growth inhibition for CC1(C)OC2C(CNS(C)(=O)=O)OC(n3cnc4c(N)ncnc43)C2O1 (stereo not given) : -4.75

// recorded growth inhibition for O=C(CNc1ccc(Cl)cc1Cl)NC1C=Cc2ccc(S(=O)(=O)Nc3ccc(Cl)cc3Cl)cc2C1=O (stereo not given) : 14.2

---

Experiment: NCI Yeast Anticancer Drug Screen. Data for the mec2-1 strain (AID 157)
Conditions: S. cerevisiae mec2-1 strain, at 50.0 µM, stronger effect = higher value
This is part of a sample that, as a whole, favours compounds with a hit. Of some 79,000 tested, about 15% had one in any assay.
measurement name: growth inhibition (%)
Lab book: enter the figure in %, no units written.

{"columns": ["compound", "growth inhibition [%]"],
 "data": [
  ["CC(C)(C#N)OC(=O)Nc1c(Cl)cccc1Cl", -23.2],
  ["O=[N+]([O-])c1cc(C=NCCCCCCN=Cc2ccc(Cl)c([N+](=O)[O-])c2)ccc1Cl", -3.85],
  ["COc1ccc2c(c1)CC[C@@H]1[C@@H]2CC[C@@]2(C)[C@H]1C[C@@](C)(O)[C@H]2O", 3.05],
  ["Cc1ccc(C(=O)/C(C#N)=C/Nc2c(C)n(C)n(-c3ccccc3)c2=O)cc1", 23.6],
  ["CCCCOC(=O)C1C(c2ccc(Cl)cc2)NC(c2ccc(Cl)cc2)C(C(=O)OCCCC)S1(=O)=O (stereo not drawn)", -15.1]
]}

// recorded growth inhibition for C/C=C(/C=O)[C@@H]1CC2c3c(c4ccccc4n3[C@@H](O)C1)CCN2C (stereo partly drawn) : -17.6

// recorded growth inhibition for Cc1ccc(NC(=O)/C(CC(=O)c2c[n+](=O)c3ccccc3n2O)=N\NC(=O)C[n+]2ccccc2)cc1 : -1.25

// recorded growth inhibition for CCCN1C(=O)CC(NC(C)=O)C1=O (stereo not drawn) : 6.45
